target.or.system: SARS-CoV-2 M^pro (Severe acute respiratory syndrome coronavirus 2 (2019-nCoV) (SARS-CoV-2), UniProt P0DTD1)
test.summary: biochemical
condition.summary: read-out: Activity (% enzyme activity by fluorescence relative to initial enzyme activity), compound at 17 μM, duplicates, 20 min pre-incubation
Field: remaining activity at 17 µM. Provide a value for each of the compounds that follow.

Recorded remaining activity at 17 µM, per entry:
{"columns": ["compound", "remaining activity at 17 µM"],
 "data": [
  ["COc1ccc([C@@H]2CC(=O)c3c(O)cc(O)cc3O2)cc1CC=C(C)C", "10 to 80%"],
  ["CC(C)=CCc1c(O)cc2c(c1O)C(=O)[C@H](O)[C@@H](c1ccc(O)cc1)O2", "> 80%"],
  ["COc1ccc(-c2coc3cc(O)c(CC=C(C)C)c(O)c3c2=O)c(O)c1", "> 80%"],
  ["COc1c(O)cc2oc(-c3cc(CC=C(C)C)c(O)c(CCC(C)CO)c3)c(OC)c(=O)c2c1O (centres unmarked)", "> 80%"],
  ["COc1ccc([C@@H]2CC(=O)c3c(O)cc(O)c(CC=C(C)C)c3O2)cc1O (stereo in doubt)", "> 80%"],
  ["COc1cc([C@@H]2CC(=O)c3c(O)cc(O)c(CC=C(C)C)c3O2)c(O)cc1O", "> 80%"],
  ["CC(C)=CCc1c(O)cc2oc(-c3ccc(O)cc3O)cc(=O)c2c1O", "> 80%"],
  ["CC(C)=CCc1c(O)cc(O)c2c1OC(c1cc3c(cc1O)O[C@@H](c1ccc(O)cc1)[C@@H]3c1cc(O)cc(O)c1)CC2=O (some centres unmarked)", "> 80%"]
]}

# per-item lookup of remaining activity at 17 µM; items listed below
1. COc1c(C2=Cc3ccc(O)cc3OC2)ccc(O)c1CC=C(C)C
2. C=C(C)[C@H](CCC(C)(C)O)Cc1c(O)cc(OC)c2c1O[C@H](c1ccc(O)cc1O)[C@H](O)C2=O

1: > 80%; 2: > 80%

----------
target.or.system: SARS-CoV-2 M^pro (Severe acute respiratory syndrome coronavirus 2 (2019-nCoV) (SARS-CoV-2), UniProt P0DTD1)
test.summary: biochemical
condition.summary: compounds evaluated at 0.015-300 μM; read-out: IC50
Would you mind telling me the reported pIC50 of each entry?
One number for each entry, as −log10 of the molar value.

{"columns": ["compound", "outcome.measure", "test.value"],
 "data": [
  ["CC(C)=CCc1cc([C@@H]2CC(=O)c3c(O)cc(O)c(CC=C(C)C)c3O2)c(O)cc1O", "pIC50", 4.02]
]}

For every record below, what is its pIC50?
1. O=c1c(O)c(-c2ccc(O[C@@H]3O[C@H](CO)[C@@H](O)[C@H](O)[C@H]3O)cc2)oc2cc(O)cc(O)c12 [Kaempferol-4′-O-beta-D-glucopyranoside]
2. COc1cc2c(c3c1CC[C@@H](c1ccccc1)O3)[C@H]1c3c(cc(O)c(C)c3OC)O[C@](c3ccccc3)(O2)[C@@H]1O
3. O=c1cc(-c2ccc(O)cc2)oc2c([C@@H]3O[C@H](CO)[C@@H](O)[C@H](O)[C@H]3O)c(O)c([C@@H]3OC[C@H](O)[C@H](O)[C@H]3O)c(O)c12 [Isoschaftoside]
4. COc1cc(O)c2c(c1CC=C(C)C)O[C@H](c1cc(CC=C(C)C)c(O)cc1O)CC2=O
5. CC(C)=CCc1c2c(c(O)c3c(=O)c(-c4ccc(O)c(O)c4)coc13)CC(C(C)(C)O)O2 (stereo not drawn)

[4.92, 4.77, 4.70, 5.52, 5.15]
